src = ChEMBL document CHEMBL1149440

# Peroxisome proliferator-activated receptor alpha (Homo sapiens, UniProt Q07869): EC50 values follow
# Sequence (Q07869 whole entry): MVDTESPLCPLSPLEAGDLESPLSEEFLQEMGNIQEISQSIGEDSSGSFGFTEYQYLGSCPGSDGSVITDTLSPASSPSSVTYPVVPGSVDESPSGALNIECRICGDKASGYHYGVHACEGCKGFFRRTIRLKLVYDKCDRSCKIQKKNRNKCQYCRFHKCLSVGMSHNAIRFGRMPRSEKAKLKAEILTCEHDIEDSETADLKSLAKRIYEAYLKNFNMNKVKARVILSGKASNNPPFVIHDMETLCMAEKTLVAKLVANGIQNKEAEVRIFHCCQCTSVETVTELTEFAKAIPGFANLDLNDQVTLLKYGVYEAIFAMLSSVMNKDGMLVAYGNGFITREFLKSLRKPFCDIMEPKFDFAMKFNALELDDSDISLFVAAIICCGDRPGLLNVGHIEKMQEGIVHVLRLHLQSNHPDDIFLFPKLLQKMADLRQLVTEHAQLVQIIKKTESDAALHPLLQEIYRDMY
Value expressed in nM; do not type the unit.

Reported EC50, compound CCCc1cc(C(=O)c2ccc(F)cc2)ccc1OCCCOc1ccc2c(ccn2CC(=O)O)c1 : ____
50

// next record CCCc1c(OCCCOc2cccc3c2ccn3CC(=O)O)ccc2cc(C(=O)c3ccccc3)ccc12
19

// next record CCCc1cc(C(=O)c2ccc(F)cc2)ccc1OCCCOc1cccc2c1ccn2CC(=O)O
773

// next record CCCc1c(OCCCOc2ccc3ccn(CC(=O)O)c3c2)ccc2cc(C(=O)c3ccccc3)ccc12
2480

* * *

In this section, each of the molecules is paired with its reported IC50.
test.target: Peroxisome proliferator-activated receptor delta (Homo sapiens, UniProt Q03181)
Sequence (Q03181 whole entry): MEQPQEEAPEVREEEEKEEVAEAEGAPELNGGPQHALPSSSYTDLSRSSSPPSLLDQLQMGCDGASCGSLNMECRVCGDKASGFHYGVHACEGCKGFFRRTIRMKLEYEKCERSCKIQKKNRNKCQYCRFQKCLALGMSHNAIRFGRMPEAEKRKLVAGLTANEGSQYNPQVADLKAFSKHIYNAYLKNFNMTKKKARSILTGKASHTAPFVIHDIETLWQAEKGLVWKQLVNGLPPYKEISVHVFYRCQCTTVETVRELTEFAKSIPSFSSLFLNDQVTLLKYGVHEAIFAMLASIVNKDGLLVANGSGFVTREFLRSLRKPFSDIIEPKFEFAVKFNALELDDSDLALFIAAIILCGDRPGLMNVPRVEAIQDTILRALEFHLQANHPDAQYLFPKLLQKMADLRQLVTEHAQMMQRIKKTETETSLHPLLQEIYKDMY

Find IC50 (Peroxisome proliferator-activated receptor delta (Homo sapiens, UniProt Q03181)) for the entry O=C(O)Cn1ccc2ccc(OCCCOc3ccc(C(=O)c4ccc(F)cc4)cc3)cc21
3.15 µM

// next record CCCc1c(OCCCOc2ccc3ccn(CC(=O)O)c3c2)ccc2cc(C(=O)c3ccccc3)ccc12
2.4 µM

// next record O=C(O)Cn1ccc2ccc(OCCCOc3ccc4cc(C(=O)c5ccccc5)ccc4c3)cc21
2.57 µM

// next record O=C(O)Cn1ccc2c(OCCCOc3ccc(C(=O)c4ccc(F)cc4)cc3)cccc21
> 10 µM

// next record CCCc1c(OCCCOc2cccc3c2ccn3CC(=O)O)ccc2cc(C(=O)c3ccccc3)ccc12
5.38 µM

// next record O=C(O)Cn1ccc2cc(OCCCOc3ccc(C(=O)c4ccc(F)cc4)cc3)ccc21
> 10 µM

// next record O=C(O)Cn1ccc2c(OCCCOc3ccc4cc(C(=O)c5ccccc5)ccc4c3)cccc21
> 10 µM

// next record CCCc1cc(C(=O)c2ccc(F)cc2)ccc1OCCCOc1cccc2c1ccn2CC(=O)O
3.26 µM

// next record O=C(O)Cn1ccc2cc(OCCCOc3ccc4cc(C(=O)c5ccccc5)ccc4c3)ccc21
4.43 µM

// next record CCCc1cc(C(=O)c2ccc(F)cc2)ccc1OCCCOc1ccc2ccn(CC(=O)O)c2c1
7.62 µM

* * *

test.target: Peroxisome proliferator-activated receptor alpha (Homo sapiens)
reported.metric: pIC50
For clarity, pIC50 is expressed as the negative log10 of concentration in mol/L.

// solved cases for pIC50 follow
CCCc1c(OCCCOc2ccc3c(ccn3CC(=O)O)c2)ccc2c(C(F)(F)F)noc12 ... 6.30
O=C(O)Cn1ccc2c(OCCCOc3ccc(C(=O)c4ccc(F)cc4)cc3)cccc21 ... 5.99
CCCc1cc(C(=O)c2ccc(F)cc2)ccc1OCCCOc1cccc2c1ccn2CC(=O)O ... 6.38
CCCc1c(OCCCOc2cccc3c2ccn3CC(=O)O)ccc2cc(C(=O)c3ccccc3)ccc12 ... 6.24
CCCc1c(OCCCOc2ccc3ccn(CC(=O)O)c3c2)ccc2cc(C(=O)c3ccccc3)ccc12 ... 5.35
O=C(O)Cn1ccc2ccc(OCCCOc3ccc(C(=O)c4ccc(F)cc4)cc3)cc21 ... 6.94

Reported pIC50, compound CCCc1cc(C(=O)c2ccc(F)cc2)ccc1OCCCOc1ccc2ccn(CC(=O)O)c2c1 : ____
5.98

// next record CCCc1c(OCCCOc2ccc3c(ccn3CC(=O)O)c2)ccc2cc(C(=O)c3ccccc3)ccc12
6.95

// next record O=C(O)Cn1ccc2c(OCCCOc3ccc4cc(C(=O)c5ccccc5)ccc4c3)cccc21
5.97
